- ASSAY_OVERVIEW: MLM stability (High Activity)
- Format: in vitro ADME, BALB/c mice
- CONDITION_DETAILS: male, BALB/c, mouse, liver microsomes, pH 7.4, Condition 2 (High Activity), 1.0 mg protein/mL
- Method: MLM Stability (High Activity). Pooled MLM from male BALB/c mice (XenoTech M3000) were used. Microsomal incubations were carried out in 96-well plates in 5 aliquots of 40 μL each (one for each time point). […] Five time points over 60 minutes were analyzed. […] Supernatants were analyzed for parent compound remaining using a fit-for-purpose liquid chromatography-tandem mass spectrometry (LC-MS/MS) method, with authentic samples of each analyte used for identity confirmation. […]
Outcome: met for half-life at 1 μM of at least 1 h; not met for anything lower.

Decide: is the reported value of half-life at 1 μM for CN[C@]1(c2ccccc2C)CCCCC1=O [Compound 38S] equal to or greater than 1 h?
not met

Check if half-life at 1 μM >= 1 h (inclusive). Item: O=C1CCCC[C@@]1(NCCO)c1ccccc1 [Compound 30R]
not met

Given the entry CN[C@@]1(c2ccccc2)CCCCC1=O [Compound 14R] , answer whether its half-life at 1 μM meets or surpasses 1 h.
met

Decide: half-life at 1 μM of CN[C@]1(c2ccccc2)CCCCC1=O [Compound 14S] >= 1 h?
met

Does [2H]C([2H])([2H])N[C@]1(c2ccccc2)CCCCC1=O [Compound 88S] have a reported half-life at 1 μM of at least 1 h?
met

Could you tell me if the measured half-life at 1 μM of CNC1(c2ccccc2Cl)CCCCC1=O (racemic) [rac-ketamine, racemic ketamine, reference compound] reaches 1 h or more?
not met

Answer whether half-life at 1 μM of N[C@@]1(c2ccccc2)CCCCC1=O [Compound 11R, (R)-2-amino-2-phenyl-cyclohexan-1-one] is greater than or equal to 1 h.
met

Decide: half-life at 1 μM of O=C1CCCC[C@@]1(c1ccccc1)N1CCC1 [Compound 84S] >= 1 h?
not met
